- System Name: EGFR (Homo sapiens, UniProt P00533, L858R/T790M)
- Construct: endogenous in cells; host or cells: H1975
- Sequence (P00533 25-1210 T790M/L858R): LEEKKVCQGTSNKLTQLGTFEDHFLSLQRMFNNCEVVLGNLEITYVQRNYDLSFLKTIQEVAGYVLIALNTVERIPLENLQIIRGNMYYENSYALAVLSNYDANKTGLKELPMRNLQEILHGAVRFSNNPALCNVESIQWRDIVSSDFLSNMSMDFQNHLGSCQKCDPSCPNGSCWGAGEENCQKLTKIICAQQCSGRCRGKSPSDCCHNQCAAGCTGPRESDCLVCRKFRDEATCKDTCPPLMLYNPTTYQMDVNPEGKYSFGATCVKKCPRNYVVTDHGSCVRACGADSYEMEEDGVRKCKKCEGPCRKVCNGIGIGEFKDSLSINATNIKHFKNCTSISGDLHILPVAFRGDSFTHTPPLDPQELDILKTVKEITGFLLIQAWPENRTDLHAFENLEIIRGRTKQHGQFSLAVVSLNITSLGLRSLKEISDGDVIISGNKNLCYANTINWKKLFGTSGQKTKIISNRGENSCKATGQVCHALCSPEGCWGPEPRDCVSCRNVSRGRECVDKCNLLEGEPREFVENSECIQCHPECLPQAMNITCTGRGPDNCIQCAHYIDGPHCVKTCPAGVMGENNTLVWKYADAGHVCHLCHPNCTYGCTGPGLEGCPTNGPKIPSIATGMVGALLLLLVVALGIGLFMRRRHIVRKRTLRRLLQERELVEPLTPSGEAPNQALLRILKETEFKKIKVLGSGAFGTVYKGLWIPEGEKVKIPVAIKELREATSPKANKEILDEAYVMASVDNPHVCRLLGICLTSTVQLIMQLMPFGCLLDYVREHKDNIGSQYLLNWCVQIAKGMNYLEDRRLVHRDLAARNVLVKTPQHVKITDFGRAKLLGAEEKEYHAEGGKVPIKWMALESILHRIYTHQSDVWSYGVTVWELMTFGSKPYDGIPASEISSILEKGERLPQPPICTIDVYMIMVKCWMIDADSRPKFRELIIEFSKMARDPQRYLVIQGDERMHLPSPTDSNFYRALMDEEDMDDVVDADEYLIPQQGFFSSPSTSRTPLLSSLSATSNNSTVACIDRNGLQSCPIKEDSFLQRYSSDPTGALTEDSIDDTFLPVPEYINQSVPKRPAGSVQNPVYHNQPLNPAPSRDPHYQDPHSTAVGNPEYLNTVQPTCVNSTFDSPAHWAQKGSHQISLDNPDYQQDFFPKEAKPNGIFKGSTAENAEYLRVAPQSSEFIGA
- Procedure Details: Cell Degradation 1: EGFR degradation in H1975 cells, HTRF assay
- Assay type: cell-based
- Condition Details: 16 h treatment, EGFR degradation by HTRF
Catalogue of DC50 values
Measure Name: DC50

[
  {
    "Compound": "COc1cc(N2CCC(N3CCN(CCC4CCN(c5ccc(C6CCC(=O)NC6=O)cc5)CC4)CC3)CC2)ccc1Nc1ncc(Cl)c(Nc2cccc3c2N(S(C)(=O)=O)CC3)n1 (stereo not shown)",
    "Measure Name": "DC50",
    "Observed": "7.2 nM"
  },
  {
    "Compound": "CS(=O)(=O)N1CCc2cccc(Nc3nc(Nc4ccc(N5CCC(N6CCN(CCC7CCN(c8ccc(C9CCC(=O)NC9=O)c(F)c8)CC7)CC6)CC5)c(F)c4)ncc3Cl)c21 (stereo not shown)",
    "Measure Name": "DC50",
    "Observed": "5.5 nM"
  },
  {
    "Compound": "CN(CCc1ccc(C2CCC(=O)NC2=O)c(F)c1)C1CCN(c2ccc(Nc3ncc(Cl)c(Nc4cccc5c4N(S(C)(=O)=O)CC5)n3)c3c2CCO3)CC1 (stereo not shown)",
    "Measure Name": "DC50",
    "Observed": "> 10000 nM"
  },
  {
    "Compound": "COc1cc(N2CCC(N3CCN(CCC4CN(c5ccc(C6CCC(=O)NC6=O)cc5)C4)CC3)CC2)ccc1Nc1ncc(Cl)c(Nc2cccc3c2N(S(C)(=O)=O)CC3)n1 (stereo not shown)",
    "Measure Name": "DC50",
    "Observed": "> 10000 nM"
  }
]
